Reported apparent KD of MS2 coat protein values follow for various sequences
# System: MS2 coat protein
# ASSAY: apparent KD of MS2 coat protein; designed switch direction (-1 OFF switch, 1 ON switch): 1; higher = weaker reporter binding
# PARTICULARS: Eterna round: R95; input ligand: microRNA oligo, concentration not stated
READOUT_NAME: apparent KD of MS2 coat protein (nM)

- SEQUENCE_CODE: "AUAAAACAUGAGGAUCACCCAUGUCAACAAAGUCGAGGAUAUGGGCAAAUAAAAUAAGAACCAGAAGGCGAAUUAU [salish99_ss1_r3_036] (puzzle: Same State 1)"
  ASSAY_VALUE: 423
- SEQUENCE_CODE: "AACAAUCUAUCUUAGGAUAUCAUGAAAUAAACAUGAGGAUCACCCAUGUGCAGGAAAACUGCAUAUGAGAAGGCAGAUAGAUUGA [salish99_ss2_r3_026] (puzzle: Same State 2)"
  ASSAY_VALUE: 36.2
- SEQUENCE_CODE: "AGGUGGUGUGGAAAGGAUAUACUGUUGAGGACAUGAGGAUCACCCAUGUGGUAGAGGACGUAAGGGUAGAAGGUUCGGGAUUGGU [JR_SS@_Sub021] (puzzle: Same State 2)"
  ASSAY_VALUE: 50.2

* * *

Reported apparent KD of MS2 coat protein values follow for various sequences
# System: MS2 coat protein
# ASSAY: apparent KD of MS2 coat protein; designed switch direction (-1 OFF switch, 1 ON switch): 1; higher = weaker reporter binding
# PARTICULARS: input ligand: microRNA oligo, concentration not stated

- SEQUENCE_CODE: "UUGUUUCGUCAUUAACAUGAGGAUCACCCAUGUAUCGACUCAAAGGAUAUAUAUGCUUGUUUGCAAUAGAAGGUUGAUUGUUGU [JR_SSNG3_Sub092] (Eterna round: R96, puzzle: Same State NG 3)"
  UNIT_NAME: "nM"
  apparent KD of MS2 coat protein: 28.1
- SEQUENCE_CODE: "AGAAGACAUGAGGAUCACCCAUGUACAUAAUGAGGAGAAUGGGAGGAUAUGUAGAGAGAGAGGGAGCAGAAGGUCCAGUAUGAA [Default title] (Eterna round: R96, puzzle: Same State NG 3)"
  UNIT_NAME: "nM"
  apparent KD of MS2 coat protein: 99.2
- SEQUENCE_CODE: "ACAUGAGAUGGAGGAUAUGUUGUACCUACAUGUGACAUGAGGAUCACCCAUGUGGUAAGUAUGAUACAGAAGGCCAAGAUAUGU [Equivalance 59 - Jieux - Same State NG 2] (Eterna round: R96, puzzle: Same State NG 2)"
  UNIT_NAME: "nM"
  apparent KD of MS2 coat protein: 15.8
- SEQUENCE_CODE: "AAAAGAAACACAGGAUAUACCGCACUUAACGCGGUAGAAGGGUGGGACAUGAGGAUCACCCAUGUGGCCUAAGCGCCAGGCCGC [Tibiorvela] (Eterna round: R96, puzzle: Same State NG 1)"
  UNIT_NAME: "nM"
  apparent KD of MS2 coat protein: 13.1
- SEQUENCE_CODE: "ACGUGGACGAAAGUCCACGAAUAAGACGAACAUGAGGAUCACCCAUGUGAGGCGAGCUUUUUGUUCGUCUUAUAAAA [Mat - Sensor - Mod - D116] (Eterna round: R96, puzzle: Sensor for hsa-mir-208a)"
  UNIT_NAME: "nM"
  apparent KD of MS2 coat protein: 32.1
- SEQUENCE_CODE: "AAAAAACAUGAGGAUCACCCAUGUCAAAAGACAUGAGGAUAUGUACAGACUUCGGUCUGUACAGAAGGCAUGUAAA [SS1 - 1015] (Eterna round: R96, puzzle: Same State 1)"
  UNIT_NAME: "nM"
  apparent KD of MS2 coat protein: 241
- SEQUENCE_CODE: "AUUAAUUAAUUAAUACAUGAGGAUCACCCAUGUAAUAAGAUCUAGGAUAUCAGCUCGAAUAGAGCUGAGAAGGAGAUCACAUGU [SSNG3/17-A1] (Eterna round: R96, puzzle: Same State NG 3)"
  UNIT_NAME: "nM"
  apparent KD of MS2 coat protein: 31.1
- SEQUENCE_CODE: "GCCAACACAUGAGGAUAUGGCACCUUAUUGGUGCCAGAAGGCAUGUCUAUUGACAUGAGGAUCACCCAUGUAUUAUAGUUGGCA [Fiskers NG1ss - 14] (Eterna round: R96, puzzle: Same State NG 1)"
  UNIT_NAME: "nM"
  apparent KD of MS2 coat protein: 214
- SEQUENCE_CODE: "AGGCUCAGAGCAGGAUAUAUGUGGUCACAUGAGGAUCACCCAUGUCUCGAGCUUCGGCUCGAGGCAUAGAAGGGCUCUGAGCCA [SSNG2/5-B1] (Eterna round: R96, puzzle: Same State NG 2)"
  UNIT_NAME: "nM"
  apparent KD of MS2 coat protein: 22.9
